Tested on: RARa:RXR (NR concentration 270 nM, RXRa partner concentration 90 nM)
protocolNotes: PBM binding z-score (relative to random genomic background probes); higher = stronger binding; sequences stand for … in GC…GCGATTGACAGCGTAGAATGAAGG
endpointLabel: PBM binding z-score
Keep it simple and answer with nothing but the number.

// PBM binding z-score lookup, key: "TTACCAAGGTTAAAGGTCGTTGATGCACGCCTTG"
6.63

Next sequence: "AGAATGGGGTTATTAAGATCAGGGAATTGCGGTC"
2.78

Now the sequence "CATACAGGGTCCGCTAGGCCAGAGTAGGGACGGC"
-0.535

Entry to check: "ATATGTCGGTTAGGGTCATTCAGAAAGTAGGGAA"
5.07

Item: "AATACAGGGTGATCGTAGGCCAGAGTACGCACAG"
0.29

Next entry: "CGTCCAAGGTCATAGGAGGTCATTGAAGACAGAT"
6.52

Another sequence to look at: "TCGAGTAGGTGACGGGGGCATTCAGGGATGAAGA"
2.63

Proceed to "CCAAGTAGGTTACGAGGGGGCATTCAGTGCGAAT"
3.18

Let us now turn to "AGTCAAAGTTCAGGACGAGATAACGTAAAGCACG"
1.85

Cool, now "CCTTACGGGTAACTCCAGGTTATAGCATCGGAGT"
0.64

"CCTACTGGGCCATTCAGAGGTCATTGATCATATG" , same question.
4.59

Same for "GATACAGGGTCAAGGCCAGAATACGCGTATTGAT"
4.79

Also need "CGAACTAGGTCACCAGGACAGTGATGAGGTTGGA" , thanks.
2.69

Repeat with "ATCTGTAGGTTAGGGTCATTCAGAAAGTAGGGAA"
5.21

// repeat for "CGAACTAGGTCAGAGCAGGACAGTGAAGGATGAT" and report
1.54

Entry to check: "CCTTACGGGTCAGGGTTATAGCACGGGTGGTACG"
3.06

Consider next the sequence "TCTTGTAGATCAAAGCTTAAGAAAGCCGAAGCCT" in the same way.
-0.177

Thanks! And "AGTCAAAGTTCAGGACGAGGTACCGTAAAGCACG" ?
2.02

Cool, now "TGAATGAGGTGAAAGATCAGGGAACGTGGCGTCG"
1.8

Field entry: "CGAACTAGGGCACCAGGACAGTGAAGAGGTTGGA"
-0.404

Also check "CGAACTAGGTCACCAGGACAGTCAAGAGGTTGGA"
2.72

Next sequence: "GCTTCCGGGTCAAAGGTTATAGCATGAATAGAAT"
8.48

Next entry: "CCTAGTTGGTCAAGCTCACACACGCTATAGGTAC"
0.432

----------
Tested on: RARb homodimer (NR concentration 270 nM)
protocolNotes: PBM binding z-score (relative to random genomic background probes); higher = stronger binding; sequences stand for … in GC…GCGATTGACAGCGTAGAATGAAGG
For each entry below, report its PBM binding z-score value.
Please respond with just the number, no unit label.

Which PBM binding z-score is reported for this sequence? "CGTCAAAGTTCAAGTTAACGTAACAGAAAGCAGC"
4.24

Follow-up entry: "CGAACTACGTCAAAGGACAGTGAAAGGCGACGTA"
0.995

Could you do the same for "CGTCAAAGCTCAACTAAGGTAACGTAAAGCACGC" , please?
0.161

Another sequence to check: "CCTACTGGGCAAAAAAGGTCATTGATGCCGATAA"
4.17

Param item: "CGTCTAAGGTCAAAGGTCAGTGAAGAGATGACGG"
5.44

Follow-up entry: "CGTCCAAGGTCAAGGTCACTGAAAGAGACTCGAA"
5.6

Can you handle "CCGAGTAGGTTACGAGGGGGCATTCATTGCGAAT" next?
2.05

Entry to check: "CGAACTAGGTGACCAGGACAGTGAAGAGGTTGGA"
1.03

Next sequence up: "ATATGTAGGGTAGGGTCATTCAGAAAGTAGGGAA"
3.53

// same read-out, input: "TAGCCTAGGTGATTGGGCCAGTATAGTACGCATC"
-0.159

Now consider "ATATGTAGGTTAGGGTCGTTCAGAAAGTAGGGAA" and answer again.
2.05

Now the sequence "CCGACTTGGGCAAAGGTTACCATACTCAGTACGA"
1.87

Also check "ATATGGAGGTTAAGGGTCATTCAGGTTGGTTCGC"
4.46

Now the same for "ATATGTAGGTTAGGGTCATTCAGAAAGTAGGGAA"
3.49

----------
System: PPARg:RXRa (NR concentration 180 nM, RXRa partner concentration 90 nM)
protocolNotes: PBM binding z-score (relative to random genomic background probes); higher = stronger binding; sequences stand for … in GC…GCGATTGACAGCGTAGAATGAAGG
endpointLabel: PBM binding z-score
Reply with the value as a number alone.

# lookup: PBM binding z-score of "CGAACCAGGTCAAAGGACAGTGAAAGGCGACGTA"
7.61

One more sequence: "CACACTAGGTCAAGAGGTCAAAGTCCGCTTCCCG"
9.41

And what about the sequence "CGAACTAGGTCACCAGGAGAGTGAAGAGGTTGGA" ?
8.26

Same read-out for "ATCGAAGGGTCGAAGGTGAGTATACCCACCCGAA" ?
2.73

Continue with "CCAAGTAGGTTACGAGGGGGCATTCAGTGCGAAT"
4.83

Follow-up item: "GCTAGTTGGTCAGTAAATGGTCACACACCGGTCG"
0.366

Ok, now "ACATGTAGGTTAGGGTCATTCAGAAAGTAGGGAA"
6.68

Further, for "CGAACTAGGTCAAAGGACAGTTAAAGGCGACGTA" ?
10.5

Another sequence to look at: "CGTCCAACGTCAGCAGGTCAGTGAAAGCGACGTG"
-0.188

Param item: "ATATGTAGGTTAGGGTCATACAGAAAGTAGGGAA"
8.3

Repeat for the following sequence: "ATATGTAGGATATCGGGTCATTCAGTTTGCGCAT"
2.36

// next record "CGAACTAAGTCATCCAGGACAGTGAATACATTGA"
0.532

What do you get for "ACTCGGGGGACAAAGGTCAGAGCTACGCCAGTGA" ?
9.31

----------
System: PPARa:RXRa (NR concentration 270 nM, RXRa partner concentration 90 nM)
protocolNotes: PBM binding z-score (relative to random genomic background probes); higher = stronger binding; sequences stand for … in GC…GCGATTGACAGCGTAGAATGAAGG
We use 5 as the dividing line for PBM binding z-score: on or above the line is Fulfilled, below is Not fulfilled.

Determine whether this sequence has PBM binding z-score no lower than 5: "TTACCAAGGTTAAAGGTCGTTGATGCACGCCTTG"
Fulfilled

Likewise for "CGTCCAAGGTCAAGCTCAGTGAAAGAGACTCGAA" ?
Fulfilled

What about this sequence? "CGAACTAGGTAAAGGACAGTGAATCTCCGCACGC"
Not fulfilled

Please answer likewise for "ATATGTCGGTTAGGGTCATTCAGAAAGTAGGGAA"
Not fulfilled

Same read-out for "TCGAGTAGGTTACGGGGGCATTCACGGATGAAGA" ?
Not fulfilled

Repeat for the following sequence: "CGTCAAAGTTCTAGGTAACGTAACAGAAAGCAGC"
Not fulfilled

Subsequent entry: "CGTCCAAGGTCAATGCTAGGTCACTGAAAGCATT"
Fulfilled

Then "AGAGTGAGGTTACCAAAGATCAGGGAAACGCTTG" ?
Not fulfilled

Same thing, different sequence: "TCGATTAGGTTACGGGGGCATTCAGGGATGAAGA"
Not fulfilled

Here is the next sequence: "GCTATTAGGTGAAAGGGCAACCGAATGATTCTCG"
Fulfilled

// query: "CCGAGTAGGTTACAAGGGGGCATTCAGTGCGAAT"
Not fulfilled

Then "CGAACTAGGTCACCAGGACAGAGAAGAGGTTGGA" ?
Fulfilled

----------
Test system: LXRa:RXRa (NR concentration 270 nM, RXRa partner concentration 90 nM)
protocolNotes: PBM binding z-score (relative to random genomic background probes); higher = stronger binding; sequences stand for … in GC…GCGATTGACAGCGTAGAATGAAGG
Record form. Attribute: PBM binding z-score. Fill in for each entry.

For "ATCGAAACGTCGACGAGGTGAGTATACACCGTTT" , what is its reported PBM binding z-score?
-0.5

// next record "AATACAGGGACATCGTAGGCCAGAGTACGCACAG"
-0.29

Do the same for "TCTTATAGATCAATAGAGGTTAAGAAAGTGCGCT" please
4.21

How about "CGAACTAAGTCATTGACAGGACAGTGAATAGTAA" ?
-0.239

Same for "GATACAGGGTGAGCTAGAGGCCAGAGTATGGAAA"
-0.464

Consider next the sequence "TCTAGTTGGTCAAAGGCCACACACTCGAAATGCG" in the same way.
0.811

What do you have for "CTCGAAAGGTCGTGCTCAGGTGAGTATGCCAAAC" ?
4.15

And for "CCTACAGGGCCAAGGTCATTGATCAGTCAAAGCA" ?
3.38

Also "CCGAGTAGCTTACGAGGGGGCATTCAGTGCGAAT" , if possible.
1.73
